Documented log10 of Kd across a set of binders
assayed-system: T1, truncated wild type EGFR 1-525 (EGFR1 (1-525)-SRGPF-Myc-NMHTG-6His) (human, UniProt P00533 25-525)
T1 construct: the signal peptide is left out; not shown: Myc tag
measurement-notes: SPR (Biacore), antibody captured via anti-human Fc, antigen injected
reported-property: log10 of Kd (log10 of the value in nM)

binder: Antibody J (AbJ) (antibody, V domains shown, Full length IgG1) VH: EVQLQESGPGLVKPSQTLSLTCTVSGYSIGKDFAWNWIRQPPGKGLEWMGYISYSGNTRYQPSLKSRITISRDTSKNQFFLKLNSVTAADTATYYCVTASRGLPYWGQGTLVTVSS VL: DIQMTQSPSSMSVSVGDRVTITCHSSQDITYNIGWLQQKPGKSFKGLIYHGANLDDGVPSRFSGSGSGTDYTLTISSLQPEDFATYYCVQYDEFPWTFGGGTKLEIK
log10 of Kd: 1.58
//
binder: Antibody B (AbB) (antibody, V domains shown, Converted from scFv into a full length IgG1 antibody) VH: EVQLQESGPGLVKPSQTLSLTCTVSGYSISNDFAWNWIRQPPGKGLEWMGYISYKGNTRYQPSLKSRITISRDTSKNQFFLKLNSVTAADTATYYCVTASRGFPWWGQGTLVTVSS VL: DIQMTQSPSSMSVSVGDRVTITCHSSQDINSNIGWLQQKPGKSFKGLIYHGTNLDDGVPSRFSGSGSGTDYTLTISSLQPEDFATYYCVQYAQFPWTFGGGTKLEIK
log10 of Kd: 2.34
//
binder: Antibody F (AbF) (antibody, V domains shown, Full length IgG1) VH: EVQLQESGPGLVKPSQTLSLTCTVSGYSISRDFAWNWIRQPPGKGLEWMGYISYSGNTRYQPSLKSRITISRDTSKNQFFLKLNSVTAADTATYYCVTASRGFPYWGQGTLVTVSS VL: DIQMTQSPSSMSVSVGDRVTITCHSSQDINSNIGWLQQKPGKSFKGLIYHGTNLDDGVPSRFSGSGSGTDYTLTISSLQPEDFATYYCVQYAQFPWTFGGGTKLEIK
log10 of Kd: 2.62
//
binder: Antibody O (AbO) (antibody, V domains shown, Full length IgG1; also called Antibody 0) VH: EVQLQESGPGLVKPSQTLSLTCTVSGYSIGKDFAWNWIRQPPGKGLEWMGYISYNGNTRYQPSLKSRITISRDTSKNQFFLKLNSVTAADTATYYCVTASRGFPYWGQGTLVTVSS VL: DIQMTQSPSSMSVSVGDRVTITCHSSQDITYNVGWLQQKPGKSFKGLIYHGSNLDHGVPSRFSGSGSGTDYTLTISSLQPEDFATYYCVQYDDFPWTFGGGTKLEIK
log10 of Kd: 0.59
//
binder: Antibody L (AbL) (antibody, V domains shown, Full length IgG1) VH: EVQLQESGPGLVKPSQTLSLTCTVSGYSIGKDFAWNWIRQPPGKGLEWMGYISYNGNTRYQPSLKSRITISRDTSKNQFFLKLNSVTAADTATYYCVTASRGLPYWGQGTLVTVSS VL: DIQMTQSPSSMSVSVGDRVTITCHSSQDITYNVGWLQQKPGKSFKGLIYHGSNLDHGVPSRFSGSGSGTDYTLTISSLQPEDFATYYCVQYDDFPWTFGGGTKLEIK
log10 of Kd: 0.49
//
binder: Antibody M (AbM) (antibody, V domains shown, Full length IgG1) VH: EVQLQESGPGLVKPSQTLSLTCTVSGYSIGRDFAWNWIRQPPGKGLEWMGYISYNGNTRYQPSLKSRITISRDTSKNQFFLKLNSVTAADTATYYCVTASRGFPYWGQGTLVTVSS VL: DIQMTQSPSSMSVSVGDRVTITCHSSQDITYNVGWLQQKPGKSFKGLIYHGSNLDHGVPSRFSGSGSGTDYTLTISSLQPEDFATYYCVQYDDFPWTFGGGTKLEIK
log10 of Kd: 0.77
//
binder: Antibody G (AbG) (antibody, V domains shown, Full length IgG1) VH: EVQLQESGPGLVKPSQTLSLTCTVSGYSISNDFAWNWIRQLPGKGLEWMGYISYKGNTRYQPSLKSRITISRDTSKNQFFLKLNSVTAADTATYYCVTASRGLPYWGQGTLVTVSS VL: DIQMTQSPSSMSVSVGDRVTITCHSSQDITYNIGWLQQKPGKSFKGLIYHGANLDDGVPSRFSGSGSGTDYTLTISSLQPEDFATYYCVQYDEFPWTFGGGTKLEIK
log10 of Kd: 0.93
//
binder: Antibody N (AbN) (antibody, V domains shown, Full length IgG1) VH: EVQLQESGPGLVKPSQTLSLTCTVSGYSIGRDFAWNWIRQPPGKGLEWMGYISYSGNTRYQPSLKSRITISRDTSKNQFFLKLNSVTAADTATYYCVTASRGFPYWGQGTLVTVSS VL: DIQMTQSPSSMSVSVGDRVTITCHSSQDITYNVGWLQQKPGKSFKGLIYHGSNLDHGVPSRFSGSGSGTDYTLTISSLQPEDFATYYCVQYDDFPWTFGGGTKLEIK
log10 of Kd: 0.54
//
binder: Antibody P (AbP) (antibody, V domains shown, Full length IgG1) VH: EVQLQESGPGLVKPSQTLSLTCTVSGYSISHDFAWNWIRQPPGKGLEWMGYISYSGNTRYQPSLKSRITISRDTSKNQFFLKLNSVTAADTATYYCVTASWGLPWWGQGTLVTVSS VL: DIQMTQSPSSMSVSVGDRVTITCHSSQDINMNVGWLQQKPGKSFKGLIYHGAILDDGVPSRFSGSGSGTDYTLTISSLQPEDFATYYCVQYAEFPWTFGGGTKLEIK
log10 of Kd: 1.32
//
binder: Antibody D (AbD) (antibody, V domains shown, Full length IgG1) VH: EVQLQESGPGLVKPSQTLSLTCTVSGYSISSDFAWNWIRQPPGKGLEWMGYISYSGNTRYQPSLKSRITISRDTSKNQFFLKLNSVTAADTATYYCVTAGRGFPYWGQGTLVTVSS VL: DIQMTQSPSSMSVSVGDRVTITCHSSQDINSNLGWLQQKPGKSFKGLIYHGANLHDGVPSRFSGSGSGTDYTLTISSLQPEDFATYYCVQYAEFPWTFGGGTKLEIK
log10 of Kd: 2.74
//
binder: Antibody H (AbH) (antibody, V domains shown, Full length IgG1) VH: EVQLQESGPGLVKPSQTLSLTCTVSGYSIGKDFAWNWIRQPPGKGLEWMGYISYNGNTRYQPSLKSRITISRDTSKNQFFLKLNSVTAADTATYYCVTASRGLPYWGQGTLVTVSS VL: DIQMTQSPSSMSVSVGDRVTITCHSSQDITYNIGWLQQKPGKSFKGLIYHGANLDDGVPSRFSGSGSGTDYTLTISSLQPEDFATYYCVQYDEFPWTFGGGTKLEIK
log10 of Kd: 0.72

Data provenance is patent US20150337042A1.
